Study Target: Beta-secretase 1 (Homo sapiens, UniProt P56817)
Sequence (P56817 whole entry): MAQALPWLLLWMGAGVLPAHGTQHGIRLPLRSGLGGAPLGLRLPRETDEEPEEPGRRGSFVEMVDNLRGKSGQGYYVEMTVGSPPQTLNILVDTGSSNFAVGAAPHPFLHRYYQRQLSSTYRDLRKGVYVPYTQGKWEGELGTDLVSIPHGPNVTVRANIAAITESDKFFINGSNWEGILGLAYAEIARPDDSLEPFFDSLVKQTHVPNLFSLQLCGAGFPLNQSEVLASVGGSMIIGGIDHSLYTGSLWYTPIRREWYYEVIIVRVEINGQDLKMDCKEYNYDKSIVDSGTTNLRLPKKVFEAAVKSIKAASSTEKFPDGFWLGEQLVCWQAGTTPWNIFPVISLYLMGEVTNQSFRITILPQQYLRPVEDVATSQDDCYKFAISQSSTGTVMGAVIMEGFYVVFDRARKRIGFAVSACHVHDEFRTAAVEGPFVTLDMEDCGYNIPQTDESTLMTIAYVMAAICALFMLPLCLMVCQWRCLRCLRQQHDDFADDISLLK
pIC50: −log10 of the molar value.

Molecule Smiles	Study Target	pIC50
Nc1cc(Nc2cc(-c3ccccc3)ncn2)ccc1Br	Beta-secretase 1 (Homo sapiens, UniProt P56817)	< 3.22
O=[N+]([O-])c1cc(Nc2cc(-c3ccccc3)ncn2)ccc1Br	Beta-secretase 1 (Homo sapiens, UniProt P56817)	< 3.22
CC(=O)Nc1cc(Nc2cc(-c3ccccc3)ncn2)ccc1C	Beta-secretase 1 (Homo sapiens, UniProt P56817)	< 3.22
